Origin of measurements: paper PMC6539072

tested on: A431 cells; test: Neutral Red cell viability assay on A431 squamous carcinoma cells; type: cell-based, human; conditions: Homo sapiens, A-431; A431, 72 h, neutral red, 0.1–100 μM; NR: not reached
Below: a set of entries, each annotated with reported IC50.
QUANTITY: IC50 (µM)

                                   compound  measurement_qualifier  test_result
0  O=C(CCCOC(=O)Cc1ccccc1Nc1c(Cl)cccc1Cl)OCCc1ccc(O)c(O)c1                      =         30.7
1            O=C(O)Cc1ccccc1Nc1c(Cl)cccc1Cl                      =           32
2  O=C(Cc1ccccc1Nc1c(Cl)cccc1Cl)OCCc1ccc(O)c(O)c1                      =         13.5
3  OCCc1ccc(O)cc1 [T, tyrosol, reference compound]                      >          100
4  O=C(CCCOC(=O)Cc1ccccc1Nc1c(Cl)cccc1Cl)OCCc1ccc(O)cc1                      >          100
5  OCCc1ccc(O)c(O)c1 [HT, hydroxytyrosol, reference compound]                      >          100
